// data source = patent US5349063A

# method: Pancreas uptake and pancreas to liver ratio in Balb/c mice (radioiodine biodistribution)
# Type: in vivo
# particulars: 1 hour after administration; I-125 label, 20 μg i.v., male Balb/c mice; mean ± standard deviation
reported property: P/L (percent dose in pancreas / percent dose in liver)

molecule	experimental value
Cc1cc([125I])cc(CN(C)CCCN2CCOCC2)c1O [ERC 9]	0.66
CCN(CC)CCCN(C)Cc1cc([125I])cc(C)c1O [ERC 94]	0.67
Cc1cc([125I])cc(CN(C)CCCN2CCCCC2)c1O [ERC 90]	0.80
Cc1cc([125I])cc(CN(C)CCCN2CCCC2)c1O [ERC 46]	0.78
Cc1cc([125I])cc(CN(C)CCCN(C)C)c1O [HIPDM, reference compound]	0.46
